test system: Alopecurus myosuroides; assay: Herbicidal action post-emergence (greenhouse pot trial); assay type: in vivo; conditions: application rate 20 g/ha, scored visually after about 3 weeks vs untreated controls
property_name: Alopecurus myosuroides (Efficacy in %)
One number for each entry, in %.

{"columns": ["molecule", "Alopecurus myosuroides (Efficacy in %)"],
 "data": [
  ["CC(Sc1cc(-n2c(=O)cc(C(F)(F)F)n(C)c2=O)c(F)cc1Cl)C(=O)OC1COC1 (stereo not drawn)", 80],
  ["CC(C)C(Sc1cc(-n2c(=O)cc(C(F)(F)F)n(C)c2=O)c(F)cc1Cl)C(=O)NCC1CCCO1 (stereo not drawn)", 90],
  ["CC(C)C(Sc1cc(-n2c(=O)cc(C(F)(F)F)n(C)c2=O)c(F)cc1Cl)C(=O)OCC1CCCO1 (stereo not drawn)", 80],
  ["Cn1c(C(F)(F)F)cc(=O)n(-c2cc(SCC(C)(C)C(=O)OCC3CCOCC3)c(Cl)cc2F)c1=O", 80],
  ["CCC(Sc1cc(-n2c(=O)c(C)c(C(F)(F)F)n(C)c2=O)c(F)cc1Cl)C(=O)OCC1CCCCO1 (stereo not drawn)", 80],
  ["CCC(Sc1cc(-n2c(=O)cc(C(F)(F)F)n(C)c2=O)c(F)cc1Cl)C(=O)OCC1CCCOC1 (stereo not drawn)", 80],
  ["COC(C)COC(=O)C(C)Sc1cc(-n2c(=O)cc(C(F)(F)F)n(C)c2=O)c(F)cc1Cl (stereo not drawn)", 80],
  ["Cn1c(C(F)(F)F)cc(=O)n(-c2cc(SCC(C)(C)C(=O)OC3CCOC3)c(Cl)cc2F)c1=O (stereo not drawn)", 80]
]}

Next molecule, please.
Task item: Entry CCC(Sc1cc(-n2c(=O)cc(C(F)(F)F)n(C)c2=O)c(F)cc1Cl)C(=O)OCC1CCCCO1 (stereo not drawn) needs its Alopecurus myosuroides (Efficacy in %) filled in; supply it.
Reply: 90

====

Test system: Oryza sativa
Assay: Crop compatibility post-emergence (greenhouse pot trial)
Type: in vivo
Details: application rate 20 g/ha
Source text: Seeds of mono- and dicotyledonous weed plants and crop plants are laid out in sandy loam soil in plastic or wood-fiber pots, covered with earth and grown under controlled growth conditions in a greenhouse. […] After the trial plants had stood for about 3 weeks in the greenhouse, under optimal growth conditions, the effect of the preparations was scored visually by comparison with untreated controls. […] Crop plant compatibilities were also scored correspondingly. […]
property_name: Oryza sativa (Efficacy in %)
Answers are plain numbers, in %.

Look over these answered cases.
{"columns": ["compound", "Oryza sativa (Efficacy in %)"],
 "data": [
  ["CCC(Sc1cc(-n2c(=O)cc(C(F)(F)F)n(C)c2=O)c(F)cc1Cl)C(=O)OCC1COC(C)C1 (stereo not drawn)", 10],
  ["Cn1c(C(F)(F)F)cc(=O)n(-c2cc(SCC(C)(C)C(=O)OCC3CCCOC3)c(Cl)cc2F)c1=O (stereo not drawn)", 10]
]}

Answer for every listed entry: what is its Oryza sativa (Efficacy in %)? The entries follow.
1. CCC(Sc1cc(-n2c(=O)c(C)c(C(F)(F)F)n(C)c2=O)c(F)cc1Cl)C(=O)OCC1CCCO1 (stereo not drawn)
2. CC(Sc1cc(-n2c(=O)cc(C(F)(F)F)n(C)c2=O)c(F)cc1Cl)C(=O)NCC1CCOC1(C)C (stereo not drawn)
3. Cc1c(C(F)(F)F)n(C)c(=O)n(-c2cc(SCC(C)(C)C(=O)NCC3CCCCO3)c(Cl)cc2F)c1=O (stereo not drawn)
4. CC(Sc1cc(-n2c(=O)cc(C(F)(F)F)n(C)c2=O)c(F)cc1Cl)C(=O)OCC1CCSC1 (stereo not drawn)
5. CC(CC(=O)OCC1CCOC1)Sc1cc(-n2c(=O)cc(C(F)(F)F)n(C)c2=O)c(F)cc1Cl (stereo not drawn)
6. CC(Sc1cc(-n2c(=O)cc(C(F)(F)F)n(C)c2=O)c(F)cc1Cl)C(=O)NCC1(C)CCCO1 (stereo not drawn)
7. CC1CC(COC(=O)C(C)(C)CSc2cc(-n3c(=O)cc(C(F)(F)F)n(C)c3=O)c(F)cc2Cl)CO1 (stereo not drawn)
8. Cc1c(C(F)(F)F)n(C)c(=O)n(-c2cc(SC(CC(C)C)C(=O)OCC3CCOC3)c(Cl)cc2F)c1=O (stereo not drawn)

Reply:
1: 0; 2: 0; 3: 0; 4: 10; 5: 10; 6: 10; 7: 0; 8: 0
